- METHOD_NOTES: qHTS for Inhibitors of the Functional Ribonucleoprotein Complex (vRNP) of Lassa (LASV) Arenavirus: Viability assay - alamar blue signal for LASV Confirmatory Screen
- PROTOCOL_CONDITIONS: LASV vRNP counter-screen cells; series mostly up to 53.9 µM
Records with an inconclusive call do not appear. The source made the active and inactive calls. The call rests on the fitted dose curve.
Use one of these outcomes when replying: label 1 (active), label 0 (inactive)

Lab log entry: "COC(=O)c1nc(Cl)c(Cl)nc1N" — outcome as called in the assay? label 1

What did the test return for "CO/C=C(/C(=O)OC)c1ccccc1Oc1cc(Oc2ccccc2C#N)ncn1" ? label 1

Call for entry "Cn1cc(-c2ccncc2)c(-c2ccc(OCc3ccc4ccccc4n3)cc2)n1" : label 1

For this compound, state the assay outcome: "CCn1c(-c2nonc2N)nc2cnc(Oc3cccc(NC(=O)c4ccc(OCCN5CCOCC5)cc4)c3)cc21" label 1

// param item: Cc1ncc([N+](=O)[O-])n1CC(C)O (stereo unspecified) ; yields the recorded call label 0

Each compound tested received a call. Report the one for "O=c1[nH]c2ccccc2n1C1CCN(CCCC(c2ccc(F)cc2)c2ccc(F)cc2)CC1" . label 0

Identify the outcome logged in this assay for the compound shown: "CCCCC/C(C=O)=C\c1ccccc1" label 0

# outcome recorded in this test, key = "CCN(CC)C(=O)N[C@@H]1C=C2c3cccc4[nH]cc(c34)C[C@@H]2N(C)C1" label 0

Dear all, I need the recorded test outcome for "CN(C)c1ccc(O)c2c1C[C@H]1C[C@H]3[C@H](N(C)C)C(=O)C(C(N)=O)=C(O)[C@@]3(O)C(=O)C1=C2O" , thank you. label 0

Name the outcome recorded for "Clc1nccc2c1ccc1ccccc12" in the assay. label 0

Give the logged outcome of this assay for the following compound: "CC[C@@H](C(=O)O)[C@@H]1O[C@@H]([C@@H](C)[C@H](O)[C@H](C)C(=O)[C@H](CC)[C@H]2O[C@]3(C=C[C@@H](O)[C@]4(CC[C@@](C)([C@H]5CC[C@](O)(CC)[C@H](C)O5)O4)O3)[C@H](C)C[C@@H]2C)[C@@H](C)C[C@@H]1C" label 1
